FYI, the data here is from patent US20190282704A1.

Biological target: canine IL-31 (Canine_IL31) (canine)
Sequence (chain, as listed by the source limits assumed, form in doubt): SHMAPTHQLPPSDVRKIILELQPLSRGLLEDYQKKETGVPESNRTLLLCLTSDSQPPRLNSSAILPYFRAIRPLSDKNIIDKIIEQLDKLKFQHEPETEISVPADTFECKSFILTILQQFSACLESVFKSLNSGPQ
Assay: SPR (Biacore), immobilised IL-31, 1:1 fit
endpoint: kon (M⁻¹ s⁻¹)
API: value field is a number in M⁻¹ s⁻¹; no unit string.

Below are worked cases with known answers.
binder	valueUnit	kon
Feline 15H05 1.1_FW1_2 (antibody, V domains shown) VH: QVLLVQSGAEVRTPGASVKIFCKASGYSFTSYTIHWLRQAPAQGLEWMGNINPTSGYTENNQRFKDRLTLTADTSTNTAYMELSSLRSADTAMYYCARWGFKYDGEWSFDVWGAGTTVTVSS VL: DIQMNQSPSSLSASLGDTITVTCRASQGISIWLSWYQQKPGNIPKVLINKASNLHIGVPSRFSGSGSGTDFTLTISSLEPEDAATYYCLQSQTYPLTFGGGTKLEIK	M⁻¹ s⁻¹	6910
Feline 15H05 1.1 FW1 (antibody, V domains shown) VH: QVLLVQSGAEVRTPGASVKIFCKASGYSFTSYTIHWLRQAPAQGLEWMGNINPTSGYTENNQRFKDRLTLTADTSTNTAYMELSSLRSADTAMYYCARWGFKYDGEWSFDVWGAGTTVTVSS VL: DIQMNQSPSSLSASLGDTITVTCRASQGISIWLSWYQQKPGKVPKLLIYKASNLHIGVPSRFSGSGSGTDFTLTISSLEPEDAATYYCLQSQTYPLTFGGGTKLEIK	M⁻¹ s⁻¹	19200
Feline 15H05 3.2 (antibody, V domains shown) VH: QVLLVQSGAEVRKPGASVKIFCKASGYSFTSYTIHWLRQAPEQGLEWMGNINPTSGYTENNQRFKDRLTLTADTSTNTAYMELSSLRSADTAMYYCARWGFKYDGEWSFDVWGAGTTVTVSS VL: EITMTQSPGSLAGSPGQQVTMNCRASQGISIWLSWYQQKPGQHPKLLIYKASNLHIGVPDRFSGSGSGTDFTLTISNLQAEDVASYYCLQSQTYPLTFGGGTKLEIK	M⁻¹ s⁻¹	29700

Now look at this one.
Need kon, item Feline 11E12 1.1 FW2 (antibody, V domains shown) VH: QVLLVQSGAEVKKPGASVKIFCKASGYSFTYYDINWLRQAPEQGLEWMGWIFPGDGGTKYNETFKGRLTLTADTSTNTVYMELSSLRSADTAMYYCARGGTSVIRDAMDYWGQGALVTVSS VL: EIQMTQSPSSLSASPGDRVTITCRASESVDNYGISFMHWYQQKPGQPPKLLIYRASNLESGVPSRFSGSGSGTDFTLTISSLEPEDAATYYCQQSNKDPLTFGQGT
45200
